# test_name: Cytotoxicity against mouse L929 cells assessed as reduction in cell viability incubated for 72 hrs by MTT assay
# Assay type: toxicity, cell-based
readout_label: IC50 at 72 h (µM)
A number alone suffices; assume µM.

QUERY: I am curious: what IC50 at 72 h value has been reported for "N#Cc1cc2c(-c3ccc(Cl)cc3)nn(-c3ccccc3)c(=O)c2[nH]c1=O" ?
RESULT: 249
